- SYSTEM: T1, human CTLA-4, full-length, expressed on transfected Expi293 cells (human, UniProt P16410 36-223)
- T1 construct: whole, on cells
- T1 sequence (P16410 36-223): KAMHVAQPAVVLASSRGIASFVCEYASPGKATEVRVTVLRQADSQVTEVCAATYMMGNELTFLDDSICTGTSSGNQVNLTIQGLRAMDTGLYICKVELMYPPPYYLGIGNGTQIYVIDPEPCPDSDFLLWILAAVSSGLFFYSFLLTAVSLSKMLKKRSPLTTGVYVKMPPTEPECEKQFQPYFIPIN
- ASSAY SUMMARY: flow cytometry, 100 nM, Expi293 cells with human CTLA-4
Each entry below carries its recorded MFI.
Write down the numeric answer in MFI and omit the unit.

Look over these answered cases.
variant ICOSL IgV-Fc fusion N52R/N57F/Q100T (Fc fusion) DTQEKEVRAMVGSDVELSCACPEGSRFDLNDVYVYWQTSESKTVVTYHIPQRSSLEFVDSRYRNRALMSPAGMLRGDFSLRLFNVTPQDEQKFHCLVLSTSLGFQEVLSVEVTLHVAANFSVGSGGGGSEPKSSDKTHTCPPCPAPEAEGAPSVFLFPPKPKDTLMISRTPEVTCVVVDVSHEDPEVKFNWYVDGVEVHNAKTKPREEQYNSTYRVVSVLTVLHQDWLNGKEYKCKVSNKALPAPIEKTISKAKGQPREPQVYTLPPSREEMTKNQVSLTCLVKGFYPSDIAVEWESNGQPENNYKTTPPVLDSDGSFFLYSKLTVDKSRWQQGNVFSCSVMHEALHNHYTQKSLSLSPG :: 358000
variant ICOSL IgV-Fc fusion N52R/N57Y/Q100S (Fc fusion) DTQEKEVRAMVGSDVELSCACPEGSRFDLNDVYVYWQTSESKTVVTYHIPQRSSLEYVDSRYRNRALMSPAGMLRGDFSLRLFNVTPQDEQKFHCLVLSSSLGFQEVLSVEVTLHVAANFSVGSGGGGSEPKSSDKTHTCPPCPAPEAEGAPSVFLFPPKPKDTLMISRTPEVTCVVVDVSHEDPEVKFNWYVDGVEVHNAKTKPREEQYNSTYRVVSVLTVLHQDWLNGKEYKCKVSNKALPAPIEKTISKAKGQPREPQVYTLPPSREEMTKNQVSLTCLVKGFYPSDIAVEWESNGQPENNYKTTPPVLDSDGSFFLYSKLTVDKSRWQQGNVFSCSVMHEALHNHYTQKSLSLSPG :: 504000
variant ICOSL IgV-Fc fusion N52A/N57Y/Q100A (Fc fusion) DTQEKEVRAMVGSDVELSCACPEGSRFDLNDVYVYWQTSESKTVVTYHIPQASSLEYVDSRYRNRALMSPAGMLRGDFSLRLFNVTPQDEQKFHCLVLSASLGFQEVLSVEVTLHVAANFSVGSGGGGSEPKSSDKTHTCPPCPAPEAEGAPSVFLFPPKPKDTLMISRTPEVTCVVVDVSHEDPEVKFNWYVDGVEVHNAKTKPREEQYNSTYRVVSVLTVLHQDWLNGKEYKCKVSNKALPAPIEKTISKAKGQPREPQVYTLPPSREEMTKNQVSLTCLVKGFYPSDIAVEWESNGQPENNYKTTPPVLDSDGSFFLYSKLTVDKSRWQQGNVFSCSVMHEALHNHYTQKSLSLSPG :: 320000

Please give the measured MFI for this binder: variant ICOSL IgV-Fc fusion N52K/N57Y/Q100R (Fc fusion) DTQEKEVRAMVGSDVELSCACPEGSRFDLNDVYVYWQTSESKTVVTYHIPQKSSLEYVDSRYRNRALMSPAGMLRGDFSLRLFNVTPQDEQKFHCLVLSRSLGFQEVLSVEVTLHVAANFSVGSGGGGSEPKSSDKTHTCPPCPAPEAEGAPSVFLFPPKPKDTLMISRTPEVTCVVVDVSHEDPEVKFNWYVDGVEVHNAKTKPREEQYNSTYRVVSVLTVLHQDWLNGKEYKCKVSNKALPAPIEKTISKAKGQPREPQVYTLPPSREEMTKNQVSLTCLVKGFYPSDIAVEWESNGQPENNYKTTPPVLDSDGSFFLYSKLTVDKSRWQQGNVFSCSVMHEALHNHYTQKSLSLSPG
233000
